methodNotes: Substrate specificities of KAZ mutants (ZZ-fused, crude enzyme), furimazine
Assay type: biochemical
settings: 1 μg substrate, maximum intensity of luminescence
measuredParameter: Relative Luminescence Activity Furimazine Imax

INSERT INTO assay_data (molecule, observedresult) VALUES
  ('KAZ-V44I-A54I: KAZ mutant with two amino acid substitutions V44I and A54I, SEQ ID NO: 10 (protein) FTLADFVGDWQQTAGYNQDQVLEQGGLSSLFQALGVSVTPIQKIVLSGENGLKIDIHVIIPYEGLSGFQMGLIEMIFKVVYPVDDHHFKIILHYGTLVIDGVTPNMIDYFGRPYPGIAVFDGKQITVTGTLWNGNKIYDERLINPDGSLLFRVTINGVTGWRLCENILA', 3.4),
  ('KAZ-Y138I: KAZ with single amino acid substitution Y138I, SEQ ID NO: 8 (protein) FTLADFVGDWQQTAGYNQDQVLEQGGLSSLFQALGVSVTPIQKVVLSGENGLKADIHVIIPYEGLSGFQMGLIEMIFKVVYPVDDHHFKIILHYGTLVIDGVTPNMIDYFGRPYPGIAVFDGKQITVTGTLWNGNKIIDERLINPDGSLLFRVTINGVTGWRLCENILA', 0.6),
  ('KAZ: wild 19 kDa catalytic protein of Oplophorus luciferase (19kOLase), amino acid sequence SEQ ID NO: 2 (protein, listed as Oplophorus gracilirostris) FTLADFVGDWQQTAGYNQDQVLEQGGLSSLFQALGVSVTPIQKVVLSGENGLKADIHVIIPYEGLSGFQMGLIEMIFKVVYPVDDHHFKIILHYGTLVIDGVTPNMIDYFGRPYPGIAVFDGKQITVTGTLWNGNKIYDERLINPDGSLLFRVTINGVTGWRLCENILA', 0.4),
  ('KAZ-V44I-Y138I: KAZ mutant with two amino acid substitutions V44I and Y138I, SEQ ID NO: 12 (protein) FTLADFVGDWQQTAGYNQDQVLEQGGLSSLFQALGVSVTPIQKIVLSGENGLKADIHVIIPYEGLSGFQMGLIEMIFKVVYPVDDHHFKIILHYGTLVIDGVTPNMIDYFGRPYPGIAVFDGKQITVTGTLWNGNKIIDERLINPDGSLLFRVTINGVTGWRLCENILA', 5.1),
  ('KAZ-V44I: KAZ with single amino acid substitution V44I, SEQ ID NO: 4 (protein) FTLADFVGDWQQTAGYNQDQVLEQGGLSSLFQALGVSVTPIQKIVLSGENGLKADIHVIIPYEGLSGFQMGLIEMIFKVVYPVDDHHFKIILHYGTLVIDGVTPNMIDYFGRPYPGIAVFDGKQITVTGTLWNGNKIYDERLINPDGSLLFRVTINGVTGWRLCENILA', 0.6),
  ('KAZ-A54I-Y138I: KAZ mutant with two amino acid substitutions A54I and Y138I, SEQ ID NO: 14 (protein) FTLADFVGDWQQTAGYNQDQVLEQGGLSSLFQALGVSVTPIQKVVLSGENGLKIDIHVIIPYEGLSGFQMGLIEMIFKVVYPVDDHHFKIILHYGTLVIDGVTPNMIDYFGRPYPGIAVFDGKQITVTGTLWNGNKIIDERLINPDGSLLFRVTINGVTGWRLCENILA', 5.9),
  ('KAZ-V44I-A54I-Y138I: KAZ mutant with three amino acid substitutions V44I, A54I and Y138I, SEQ ID NO: 16 (protein) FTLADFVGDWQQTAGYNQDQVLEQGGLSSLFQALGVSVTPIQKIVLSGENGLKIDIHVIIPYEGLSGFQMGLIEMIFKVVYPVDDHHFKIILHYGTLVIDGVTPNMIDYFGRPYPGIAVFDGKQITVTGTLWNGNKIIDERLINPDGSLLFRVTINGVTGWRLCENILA', 10.6),
  ('KAZ-A54I: KAZ with single amino acid substitution A54I, SEQ ID NO: 6 (protein) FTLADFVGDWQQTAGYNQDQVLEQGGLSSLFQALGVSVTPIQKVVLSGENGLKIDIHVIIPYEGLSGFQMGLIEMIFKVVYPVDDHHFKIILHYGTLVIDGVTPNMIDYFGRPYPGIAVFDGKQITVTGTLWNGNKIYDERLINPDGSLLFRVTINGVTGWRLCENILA', 2.0);
